All figures here come from patent US10766869B2.

Entries and their fold induction at 10 µM
# Tested on: primary rat mixed cortical cells
# protocol_notes: In vitro myelination assay (MBP positive myelin strands, fold myelin pixels above background)
# Format: cell-based
# study_conditions: Rattus norvegicus, 10.0 μM compound, relative to baseline of no added compound; read-out: Fold myelin pixels above background, 10.0 μM

IN: Answer with the recorded fold induction at 10 µM for the compound listed here: CCc1cc(Nc2ncn(-c3cc(F)cc(F)c3)n2)cc(N2CC(N3CCOCC3)C2)c1
OUT: 10 to 100

IN: Supply reported fold induction at 10 µM belonging to this compound: CN1CCN(c2cc(Nc3ncn(-c4ccnc(F)c4)n3)cc(C(F)(F)F)c2)CC1
OUT: ≤ 1

IN: Give recorded fold induction at 10 µM. Cc1cc(Nc2ncn(-c3ccccc3)n2)cc(N2CCNCC2)c1
OUT: ≤ 1

Below: the item to evaluate.
IN: // fetch fold induction at 10 µM given entry Cc1cc(Nc2ncn(-c3ccnc(Cl)c3)n2)cc(N2CCCC2)c1
OUT: 100 to 1000
